Origin of measurements: patent US12612374B2

Reported pIC50 by item:
# MEASURED TARGET: human NET (Homo sapiens)
# Sequence (P23975 whole entry): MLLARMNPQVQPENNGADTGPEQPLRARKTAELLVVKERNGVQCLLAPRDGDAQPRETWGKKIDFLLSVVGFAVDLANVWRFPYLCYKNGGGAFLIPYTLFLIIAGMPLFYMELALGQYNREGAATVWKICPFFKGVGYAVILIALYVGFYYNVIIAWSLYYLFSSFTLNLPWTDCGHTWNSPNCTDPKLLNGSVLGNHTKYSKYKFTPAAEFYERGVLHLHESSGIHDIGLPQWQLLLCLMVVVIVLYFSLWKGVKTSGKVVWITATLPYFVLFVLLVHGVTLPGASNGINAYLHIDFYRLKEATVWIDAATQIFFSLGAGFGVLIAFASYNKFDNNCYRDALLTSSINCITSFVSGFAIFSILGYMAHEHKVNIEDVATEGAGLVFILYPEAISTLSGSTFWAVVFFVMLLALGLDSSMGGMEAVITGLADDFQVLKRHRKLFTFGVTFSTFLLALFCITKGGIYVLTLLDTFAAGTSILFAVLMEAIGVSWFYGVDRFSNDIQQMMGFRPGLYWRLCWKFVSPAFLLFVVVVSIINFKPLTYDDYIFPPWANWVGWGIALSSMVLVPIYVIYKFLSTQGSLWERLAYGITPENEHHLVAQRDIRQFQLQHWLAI
# PROTOCOL: Monoamine transporter reuptake inhibition, [3H]-MPP+ uptake (NET)
# CONDITION CONTEXT: HEK 293 stably expressing human NET; 0.02 μM [3H]-MPP+, 3 min; means of at least three independent experiments; NS = Not specific in the used concentration range; read-out: NET IC50 ± SD
Note: pIC50 values are expressed as the negative base-10 logarithm of concentration in M.

>>> endpoint_result("[O-][S@@+](Cc1cncs1)[C@@H](c1ccccc1)c1cccc(Br)c1 (single isomer, unassigned)")
4.93

Tell me the measured pIC50 of [O-][S+](Cc1cncs1)C(c1ccccc1)c1cccc(Br)c1 (mixture of isomers) [(R)] , please.
4.76

Tell me the measured pIC50 of [O-][S@+](Cc1cncs1)[C@@H](c1ccccc1)c1cccc(Br)c1 , please.
3.83

Tell me the measured pIC50 of [O-][S@+](Cc1cncs1)[C@H](c1ccccc1)c1cccc(Br)c1 , please.
4.86
